Provenance of the data: patent US9587005B2

- targetDesc: GLP-1 receptor (Homo sapiens, UniProt P43220)
- Construct: expressed in transfected cells; host or cells: HEK293
- Sequence (P43220 24-463): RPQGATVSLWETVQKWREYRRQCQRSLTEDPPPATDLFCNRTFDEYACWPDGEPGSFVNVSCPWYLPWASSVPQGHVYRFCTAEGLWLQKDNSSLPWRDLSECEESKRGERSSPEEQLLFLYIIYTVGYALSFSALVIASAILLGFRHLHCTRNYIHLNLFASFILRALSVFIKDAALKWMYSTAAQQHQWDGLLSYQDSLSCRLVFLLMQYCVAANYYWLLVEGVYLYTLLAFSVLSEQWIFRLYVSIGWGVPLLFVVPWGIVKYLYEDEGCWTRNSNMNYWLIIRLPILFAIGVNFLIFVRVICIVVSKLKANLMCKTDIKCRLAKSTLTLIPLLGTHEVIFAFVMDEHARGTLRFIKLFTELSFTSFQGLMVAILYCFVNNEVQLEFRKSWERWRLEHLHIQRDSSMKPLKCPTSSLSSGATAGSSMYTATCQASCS
- protocolDetails: cAMP induction, firefly luciferase reporter assay in HEK293 cells co-transfected with GLP-1 receptor
- Format: cell-based
- testParameters: Table 3; relative to the activity of the native hormone
Form field: GLP-1R relative activity (one value per entry).
# unit: % | format: bare number

Some substances with recorded GLP-1R relative activity:
Example 8 peptide: Tyr1, AIB2, Glu16/Lys20 lactam, Leu-Ala-Gly 27-29, GPSSGAPPPS 30-39, or a peptide lacking a lactam [mt-219]	16.56
Example 8 peptide: Tyr1, AIB2, Glu16/Lys20 lactam, Leu-Ala-Gly 27-29, GPSSGAPPPS 30-39, or a peptide lacking a lactam [mt-228]	19.86

Bench note, GLP-1 receptor (Homo sapiens, UniProt P43220): entry Example 8 peptide: Tyr1, AIB2, Glu16/Lys20 lactam, Leu-Ala-Gly 27-29, GPSSGAPPPS 30-39, or a peptide lacking a lactam [mt-220] , its GLP-1R relative activity = 13.89
